Biological target: Gamma-aminobutyric acid receptor subunit alpha-1 (Rattus norvegicus, UniProt P62813); further: assay procedure not described here
Sequence (P62813 whole entry): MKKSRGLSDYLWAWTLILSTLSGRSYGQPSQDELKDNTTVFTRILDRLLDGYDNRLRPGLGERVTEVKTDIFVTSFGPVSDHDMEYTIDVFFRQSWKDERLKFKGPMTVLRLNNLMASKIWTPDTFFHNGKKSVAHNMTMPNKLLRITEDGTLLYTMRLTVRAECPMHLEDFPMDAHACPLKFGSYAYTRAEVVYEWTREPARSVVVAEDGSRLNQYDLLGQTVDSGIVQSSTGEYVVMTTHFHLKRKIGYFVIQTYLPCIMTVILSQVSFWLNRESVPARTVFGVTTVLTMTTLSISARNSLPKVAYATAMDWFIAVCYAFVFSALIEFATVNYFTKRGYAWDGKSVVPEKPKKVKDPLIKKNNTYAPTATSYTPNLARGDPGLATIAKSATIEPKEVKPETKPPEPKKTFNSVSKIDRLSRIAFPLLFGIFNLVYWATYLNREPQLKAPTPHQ
Format: functional
Readout label: AC50

The following compounds have reported results that may help.
[
  {
    "Compound": "NC(=O)c1cnccn1 [PYRAZINAMIDE]",
    "AC50": "> 30 µM"
  },
  {
    "Compound": "N[C@@H](CSCC(=O)O)C(=O)O",
    "AC50": "> 30 µM"
  }
]

Would you be so kind as to report AC50 for each listed record?
1. O=C(CCCCC(=O)Nc1c(I)cc(I)c(C(=O)O)c1I)Nc1c(I)cc(I)c(C(=O)O)c1I [IODIPAMIDE]
2. CC(C)c1c(C(=O)Nc2ccccc2)c(-c2ccccc2)c(-c2ccc(F)cc2)n1CC[C@@H](O)C[C@@H](O)CC(=O)O
3. CC(=O)N[C@H]1[C@H]([C@H](O)[C@H](O)CO)OC(C(=O)O)=C[C@@H]1N=C(N)N

output:
1. > 10 µM
2. > 10 µM
3. > 10 µM

###

Target: 5-hydroxytryptamine receptor 1A (Homo sapiens, UniProt P08908)
Type: functional, cell-based
Task for the reader: assign each of the following molecules its reported AC50.

Known AC50 results, listed for orientation:
[
  {
    "Molecule": "C#CC1(OC(N)=O)CCCCC1 [ETHINAMATE]",
    "Readout label": "AC50",
    "Observed measurement": "> 10 µM"
  },
  {
    "Molecule": "O=C(CCCCC(=O)Nc1c(I)cc(I)c(C(=O)O)c1I)Nc1c(I)cc(I)c(C(=O)O)c1I [IODIPAMIDE]",
    "Readout label": "AC50",
    "Observed measurement": "> 10 µM"
  },
  {
    "Molecule": "CC(=O)NS(=O)(=O)c1ccc(N)cc1 [SULFACETAMIDE]",
    "Readout label": "AC50",
    "Observed measurement": "> 10 µM"
  },
  {
    "Molecule": "OCc1cc([C@@H](O)CNCCCCCCOCCOCc2c(Cl)cccc2Cl)ccc1O",
    "Readout label": "AC50",
    "Observed measurement": "> 30 µM"
  }
]

Provide AC50 for all items below, preserving their order.
1. CCCCOc1cc(C(=O)NCCN(CC)CC)c2ccccc2n1
2. O=C1CCC(N2C(=O)c3ccccc3C2=O)C(=O)N1 (stereo unspecified) [THALIDOMIDE]

output:
1. > 10 µM
2. > 10 µM

###

Biological target: UniProt P08908
Sequence (P08908 whole entry): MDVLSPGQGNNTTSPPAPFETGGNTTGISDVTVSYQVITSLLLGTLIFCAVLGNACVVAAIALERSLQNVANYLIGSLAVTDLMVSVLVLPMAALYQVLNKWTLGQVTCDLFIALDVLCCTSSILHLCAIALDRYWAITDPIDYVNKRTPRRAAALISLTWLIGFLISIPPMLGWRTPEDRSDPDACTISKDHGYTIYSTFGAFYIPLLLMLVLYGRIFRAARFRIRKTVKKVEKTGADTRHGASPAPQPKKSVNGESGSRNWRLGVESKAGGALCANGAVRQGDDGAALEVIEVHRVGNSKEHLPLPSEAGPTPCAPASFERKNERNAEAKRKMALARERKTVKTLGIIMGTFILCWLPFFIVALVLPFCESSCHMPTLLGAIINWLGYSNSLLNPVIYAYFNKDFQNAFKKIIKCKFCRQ
Format: functional, cell-based
Readout label: AC50

Examples with their reported AC50 follow.
[
  {
    "Molecule": "C#CC1(OC(N)=O)CCCCC1 [ETHINAMATE]",
    "Readout label": "AC50",
    "Observed measurement": "> 10 µM"
  },
  {
    "Molecule": "CS(=O)(=O)c1ccc([C@@H](O)[C@@H](CO)NC(=O)C(Cl)Cl)cc1",
    "Readout label": "AC50",
    "Observed measurement": "> 30 µM"
  },
  {
    "Molecule": "NS(=O)(=O)c1cc(Cl)c(Cl)c(S(N)(=O)=O)c1 [DICHLORPHENAMIDE]",
    "Readout label": "AC50",
    "Observed measurement": "> 10 µM"
  }
]

Dear colleague, could you send me AC50 for each of the items below? Thanks.
1. CC[C@H](C)C(=O)O[C@H]1C[C@H](O)C=C2C=C[C@H](C)[C@H](CC[C@@H](O)C[C@@H](O)CC(=O)O)[C@H]21
2. CC(=O)c1ccc2c(c1)N(CCCN1CCN(CCO)CC1)c1ccccc1S2

output:
> 30 µM
0.007 µM

###

AC50 tested on Alpha-1A adrenergic receptor (Homo sapiens, UniProt P35348): recorded values; further: assay procedure not described here
Sequence (P35348 whole entry): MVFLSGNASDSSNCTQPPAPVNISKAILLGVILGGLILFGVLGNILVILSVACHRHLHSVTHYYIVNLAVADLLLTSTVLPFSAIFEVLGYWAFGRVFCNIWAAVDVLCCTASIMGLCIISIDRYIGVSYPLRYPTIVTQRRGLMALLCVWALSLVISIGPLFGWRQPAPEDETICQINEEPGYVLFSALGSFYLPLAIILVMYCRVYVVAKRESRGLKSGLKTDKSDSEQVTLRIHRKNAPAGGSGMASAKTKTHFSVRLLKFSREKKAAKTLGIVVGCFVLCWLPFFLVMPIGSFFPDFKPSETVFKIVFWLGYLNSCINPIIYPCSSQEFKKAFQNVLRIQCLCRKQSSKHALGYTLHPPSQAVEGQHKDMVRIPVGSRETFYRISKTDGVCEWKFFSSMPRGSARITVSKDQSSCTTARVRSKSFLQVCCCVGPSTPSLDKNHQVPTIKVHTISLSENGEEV

The cases that follow already have their AC50 on record.
[
  {
    "Compound": "NC[C@H]1O[C@H](O[C@H]2[C@H](O)[C@@H](O[C@H]3O[C@H](CO)[C@@H](O)[C@H](N)[C@H]3O)[C@H](N)C[C@@H]2N)[C@H](O)[C@@H](O)[C@@H]1O",
    "Readout label": "AC50",
    "Observed measurement": "> 30 µM"
  },
  {
    "Compound": "C#CCN(C)[C@H](C)Cc1ccccc1",
    "Readout label": "AC50",
    "Observed measurement": "12.7 µM"
  },
  {
    "Compound": "CCN(CC)CCNC(=O)c1cc(Cl)c(N)cc1OC [METOCLOPRAMIDE]",
    "Readout label": "AC50",
    "Observed measurement": "> 10 µM"
  },
  {
    "Compound": "CC(C)NCC1CCc2cc(CO)c([N+](=O)[O-])cc2N1 (stereo unspecified)",
    "Readout label": "AC50",
    "Observed measurement": "> 10 µM"
  }
]

Report AC50 for each item below.
1. CCC1(C2=CCCCCC2)C(=O)NC(=O)NC1=O
2. CN1CCc2cccc3c2[C@H]1Cc1ccc(O)c(O)c1-3
3. COC(=O)[C@@H]1CC2=CC(=O)CC[C@]2(C)[C@@]23O[C@@H]2C[C@@]2(C)[C@@H](CC[C@@]24CCC(=O)O4)[C@H]13
4. NS(=O)(=O)c1cc2c(cc1Cl)NCNS2(=O)=O [HYDROCHLOROTHIAZIDE]
5. CCCCOc1cc(C(=O)NCCN(CC)CC)c2ccccc2n1
6. C1COC(NC(C2CC2)C2CC2)=N1

output:
["> 10 µM", "> 10 µM", "> 10 µM", "> 10 µM", "> 10 µM", "4.39 µM"]

Each compound below has a recorded value; state its AC50.
1. O=C(CCCCCCC(=O)Nc1ccccc1)NO
2. O=C(O)CCn1c2c(c3ccccc31)C[C@H](NS(=O)(=O)c1ccc(F)cc1)CC2

output:
1. > 10 µM
2. > 30 µM

Please state AC50 for every compound in the list that follows.
1. CC(=O)OCC(=O)[C@@]12OC3(CCCC3)O[C@@H]1C[C@H]1[C@@H]3CCC4=CC(=O)C=C[C@]4(C)[C@@]3(F)[C@@H](O)C[C@@]12C [AMCINONIDE]
2. C#CC1(OC(N)=O)CCCCC1 [ETHINAMATE]
3. C[C@H]1C[C@@H]2[C@H]([C@@H](O)C[C@@]3(C)[C@H]2CC[C@]3(O)C(=O)CO)[C@@]2(C)C=CC(=O)C=C12

output:
> 10 µM
> 10 µM
> 30 µM

###

The compounds below have reported AC50 for Melanocortin receptor 3 (Homo sapiens, UniProt P41968).

Check out these entries, answers already filled in.
[
  {
    "Compound": "O=C(OCCN1CCOCC1)c1cccnc1Nc1cccc(C(F)(F)F)c1 [MORNIFLUMATE]",
    "Readout label": "AC50",
    "Observed measurement": "> 30 µM"
  },
  {
    "Compound": "CCN(CC)CCOC(=O)c1ccc(N)cc1 [PROCAINE]",
    "Readout label": "AC50",
    "Observed measurement": "> 30 µM"
  },
  {
    "Compound": "CCC1(C2=CCCCCC2)C(=O)NC(=O)NC1=O [HEPTABARBITAL]",
    "Readout label": "AC50",
    "Observed measurement": "> 10 µM"
  }
]

For each of the items listed, what is its AC50?
1. Cc1cc2c(OCC(CNC(C)(C)C)OC(=O)c3ccccc3)cccc2[nH]1 (stereo not given) [BOPINDOLOL]
2. COc1ccc2cccc(CCNC(C)=O)c2c1 [AGOMELATINE]
3. CCOc1cc(N)c([N+](=O)[O-])cc1C(=O)NC1CCN(CC2CC=CCC2)CC1 (stereo not given) [CINITAPRIDE]

output:
["> 30 µM", "> 30 µM", "> 30 µM"]

Would you mind listing AC50 for each of the following compounds?
1. O=C(Cn1ccnc1[N+](=O)[O-])NCc1ccccc1 [BENZNIDAZOLE]
2. COC(=O)[C@H]1[C@@H](OC(=O)c2ccccc2)C[C@@H]2CC[C@H]1N2C [COCAINE]
3. COc1ccc2c(c1)C(=O)N(CCc1ccc(S(=O)(=O)NC(=O)NC3CCCCC3)cc1)C(=O)C2(C)C [GLIQUIDONE]

output:
1: > 30 µM; 2: > 30 µM; 3: > 30 µM

For every record below, what is its AC50?
1. CCOC(=O)[C@H](CCc1ccccc1)N[C@@H](C)C(=O)N1CCC[C@H]1C(=O)O
2. Cc1c(C(=O)Nc2ccc(N3C[C@@H](C)O[C@@H](C)C3)nc2)cccc1-c1ccc(OC(F)(F)F)cc1 [SONIDEGIB]
3. CN(C)C(=O)OC1N=C(c2ccccc2)c2cc(Cl)ccc2N(C)C1=O (stereo not given) [CAMAZEPAM]
4. CC(=O)NS(=O)(=O)c1ccc(N)cc1 [SULFACETAMIDE]
5. CCCCC(C)(O)C/C=C/[C@H]1[C@H](O)CC(=O)[C@@H]1CCCCCCC(=O)OC (stereo not given in full) [MISOPROSTOL]
6. COc1c(C)c2c(c(O)c1C/C=C(\C)CCC(=O)OCCN1CCOCC1)C(=O)OC2 [MYCOPHENOLATE MOFETIL]
7. C[C@]12CCC(=O)C=C1CC[C@@H]1[C@@H]2CC[C@@]2(C)[C@H]1CC[C@]2(C)O [METHYLTESTOSTERONE]
8. CN1CCN(C(=O)OC2c3nccnc3C(=O)N2c2ccc(Cl)cn2)CC1 (stereo not given) [ZOPICLONE]

output:
1: > 30 µM; 2: > 30 µM; 3: > 30 µM; 4: > 10 µM; 5: > 30 µM; 6: > 30 µM; 7: > 30 µM; 8: > 30 µM

Value source: ChEMBL document CHEMBL5291721
